tested on: OVCAR-3; test: NCI tumour cell line growth inhibition, 48 h
The source made the active and inactive calls. No stated cut-off is given here; in the data, active = GI50 up to about 1.1 µM and inactive = higher.
Experimental readout: GI50

// below: answered compounds
| Compound | GI50 |
| --- | --- |
| O=C(/C=C(O)/C(=C/C(=O)c1ccccc1)NN=C(c1ccccc1)c1ccccc1)c1ccccc1 | 18.3 µM (inactive) |
| CCCCCCC(C)OC(=O)/C=C(\CC(=O)OC(C)CCCCCC)C(=O)OC(C)CCCCCC (configuration not stated) | > 100 µM (inactive) |
| CCCCCCCCCCCCC(Br)C(=O)NCC(N)=O (configuration not stated) | 15 µM (inactive) |
| N=C(N)NC1C(O)C(O)C(O)C(NC(=N)N)C1O (configuration not stated) | > 100 µM (inactive) |
| CN(C)CCCNC(=O)CCNC(=O)c1cc(NC(=O)c2cc(NC(=O)c3cc(NC(=O)CCCNC(=O)c4cc(NC(=O)c5cc(NC(=O)c6nccn6C)cn5C)cn4C)cn3C)cn2C)cn1C | > 100 µM (inactive) |

# per-item lookup of GI50; items listed below
1. CC12C3CC4C5CC(C(C53)[C@@H]1NCc1ccccc1)C42 (some centres not stated)
2. Cc1cc(C(=C2C=CC(=N)C=C2)c2ccc(N)cc2)ccc1N
3. CC1NC(/C(=C/c2ccccc2O)NC(=O)c2ccccc2)OC1=O (configuration not stated)
4. O=C(O)CCC(=O)c1ccc2c(c1)C(C(=O)O)CC2 (configuration not stated)
5. CCOc1ccc(/N=N/c2ccc3cc(/C(C)=N/NC(=O)/C(C#N)=C\c4ccc(N(CCC#N)CCC#N)cc4)c(=O)oc3c2)cc1
6. CC(C)C1(O)C(c2ccccc2)=C(c2ccccc2)C(c2ccccc2)=C1c1ccccc1

[A]
1: 54.3 µM (inactive); 2: 3.96 µM (inactive); 3: > 50 µM (inactive); 4: > 100 µM (inactive); 5: > 10 µM (inactive); 6: 4.71 µM (inactive)

Okay, here is my list. What is GI50 for each of these?
1. COc1ccc(NC(=O)c2cc(OC)cc(OC)c2)cc1
2. CC1(C)CN=C(Nc2ccc(F)cc2)S1
3. CN1CCC(OC(=O)Oc2ccccc2)(c2ccccc2)CC1

[A]
1: 12.1 µM (inactive); 2: > 100 µM (inactive); 3: 61.5 µM (inactive)

Go through the list and state GI50 for each entry.
1. Nc1cc2ncnn2c(SCC(=O)N/N=C/C(Br)=C\c2ccccc2)n1
2. Oc1nncc2[nH]c(-c3ccccc3)cc12

[A]
["18.5 µM (inactive)", "36.2 µM (inactive)"]

Batch of 4 compounds: report GI50 for each.
1. C[n+]1ccc(-c2cc[n+](C)cc2)cc1 [PARAQUAT DICHLORIDE]
2. O=C(CC/C=C(/CS(=O)(=O)c1ccccc1)S(=O)(=O)c1ccccc1)c1ccccc1
3. O=C(c1ccccc1)c1ccc(N2C(=O)/C(=C/Cc3ccco3)N=C2c2ccccc2)c(N2C(=O)/C(=C/Cc3ccco3)N=C2c2ccccc2)c1
4. COc1ccc(/C=C2/C(=O)N(C(=O)c3ccc(Cl)cc3)N=C2C)cc1OC

[A]
1. 14 µM (inactive)
2. 85.5 µM (inactive)
3. 21.6 µM (inactive)
4. > 100 µM (inactive)
